Every entry's value here was drawn from paper PMC7673538.

- Test Name: in vitro
- Conditions: monkey, Exp 2 CC50 BGM
Each entry below carries its reported CC50.
Endpoint Name: CC50

>>> print(df.to_string())
                                   molecule  recorded_value
0  O=C(c1ccco1)N(Cc1ccccc1)c1ccccc1 [Compound 19a, N-Benzyl-N-phenylfuran-2-carboxamide]        > 100 µM
1  COc1ccc(N(Cc2ccccc2)C(=O)c2ccco2)cc1 [Compound 19c]        > 100 µM
2  Cc1ccc(CN(C(=O)c2ccco2)c2ccccc2)cc1 [Compound 19g]        > 100 µM
3  COc1ccc(N(Cc2ccc(F)cc2)C(=O)c2ccccn2)cc1        > 100 µM
4  O=C(c1ccc[nH]1)N(Cc1ccc(C(F)(F)F)cc1)c1ccccc1        > 100 µM
